Tested on: HEK-293T
Test: Incucyte cell viability with HEK293T; note: unitless GR value; below 1 slowed growth and below 0 cell loss
Type: toxicity, cell-based
Details: human, 6 h, 10 µM, compound concentration 10 uM, replicate number 2
Readout: Growth Rate
Provide a numeric answer; units are not to be included.

Record "CC(C)c1cnn2c(NCc3ccccc3)cc(NCCCCCCN)nc12.Cl" , field Growth Rate: -0.03

What the record says about "COc1cc(Nc2cnc(C#N)c(O[C@H](C)CN(C)C)n2)ncc1-c1cnn(C)c1" : Growth Rate is -0.18

The reported value for "Cc1onc(-c2ccc(F)cc2)c1COc1ccc(C(=O)N2CCS(=O)(=O)CC2)cn1" in terms of Growth Rate is 0.2
